- System: MCF7 breast
- assay-procedure: NCI-60 one-dose screen, 48 h (100 = growth as untreated, 0 = no growth, -100 = all killed)
- test-conditions: 10 µM unless noted
About 83,000 compounds went through this panel and 20% of them were active in at least one assay; those are over-represented in the sample as a whole.
Known growth of a selection of compounds
Record the value in %, omitting the unit from your answer.

Please review the entries below; each comes with its answer.
compound	readout-unit	growth
Cc1cc(=O)oc2cc(OCCCCOc3ccc(/C=C/C(=O)Nc4ccccc4N)cc3)ccc12	%	18.6
CC(C)CCNC(=O)N/C(N)=N/c1nc2ccccc2s1	%	28.5
Cc1cccc(NC(=O)CN2CCN(c3ncnc4c3cnn4-c3ccccc3)CC2)c1	%	74.8

In: Return growth for the following compound: `Cc1cccc(Nc2nc3ccccc3nc2/C=C/c2ccc(F)cc2)c1`
Out: 60.9

In: Return growth for the following compound: `COc1cc2oc(-c3cccc(NC(=O)[C@H](Cc4ccccc4)NC(=O)OC(C)(C)C)c3)cc(=O)c2c(OC)c1OC`
Out: 22.1

In: Return growth for the following compound: `COc1cc(-c2nc3ccc(C)cc3[nH]2)ccc1OCc1nnc(-c2ccc(Br)cc2)o1`
Out: 12.8

In: Return growth for the following compound: `Cc1cc2c(cc1Cl)C(=O)/C(=C/c1ccccc1)O2`
Out: 17.5

In: Return growth for the following compound: `Nc1nc(-c2ccccc2)c(N=Nc2ccc([N+](=O)[O-])cc2Cl)s1`
Out: 68.1

In: Return growth for the following compound: `CCCCNC(=S)Nc1ccc(OCc2nc3ccccc3[nH]2)cc1`
Out: 46.5

In: Return growth for the following compound: `O=C(Cn1nc(-c2ccccc2)ccc1=O)N/N=C/c1ccc(N2CCOCC2)cc1`
Out: 83.8

In: Return growth for the following compound: `CNS(=O)(=O)c1ccc(Nc2ccc(C(F)(F)F)cc2)c(-c2cn(C)cn2)c1`
Out: 42.3

In: Return growth for the following compound: CC(=O)OC[C@@]1(C)C2CC[C@]3(C)C(CC=C4C5CC(C)(C)CC[C@]5(C(=O)Nc5cccc(C)c5)CC[C@]43C)[C@@]2(C)C[C@@H](OC(C)=O)[C@@H]1OC(C)=O (some centres undefined)
Out: 24.9

In: Return growth for the following compound: `CSc1ccccc1NC(=O)c1ccc2nnn(/C(C#N)=C/c3ccccn3)c2c1`
Out: -81.4

---

- Test system: RXF 393 renal
- assay-procedure: NCI-60 one-dose screen, 48 h
- test-conditions: 10 µM unless noted
About 83,000 compounds went through this panel and 20% of them were active in at least one assay; those are over-represented in the sample as a whole. The source made the active and inactive calls. Rule for the calls: active = growth percent below 10; inactive = the rest.
Thanks in advance; please answer with one of these: 1 (yes) = active, 0 (no) = inactive

molecule	discrete-label
COc1ccc([C@H](C)Nc2nc(Cl)nc3ccccc23)cc1	0 (no)

In: How did this test come out for COc1c(F)ccc(C(=O)Nc2ccc3nc(NC(=O)C4CCCN(S(=O)(=O)c5cccc(Br)c5)C4)sc3c2)c1F (centres undefined) ?
Out: 1 (yes)

In: How did this test come out for `Cc1ncsc1-c1ccc(CNC(=O)[C@@H]2C[C@@H](O)CN2C(=O)[C@@H](NC(=O)C2(F)CC2)C(C)(C)C)c(OCCOCCOCCOCCOc2nc(Nc3cc(S(C)(=O)=O)ccc3N[C@@H](c3cccc4c3OC(F)(F)O4)c3ncccc3Cl)nc(N3CCNCC3)n2)c1` ?
Out: 0 (no)

In: How did this test come out for `NS(=O)(=O)c1ccc(N=Nc2c(O)n(CC(=O)Nc3ccccc3Cl)c3ccccc23)cc1` ?
Out: 0 (no)

In: How did this test come out for `Cn1cc(-c2nc(N)nnc2-c2c[nH]c3ccc(F)cc23)c2cccnc21` ?
Out: 0 (no)

In: How did this test come out for CC(=O)OC[C@@]1(C)C2CC[C@]3(C)C(CC=C4C5CC(C)(C)CC[C@]5(C(=O)Nc5cccc(C)c5)CC[C@]43C)[C@@]2(C)C[C@@H](OC(C)=O)[C@@H]1OC(C)=O (some centres undefined) ?
Out: 0 (no)

In: How did this test come out for `c1ccc(-c2csc(Nc3cccc(Nc4nc(-c5ccccc5)cs4)c3)n2)cc1` ?
Out: 0 (no)

In: How did this test come out for `N#Cc1c(-c2cccc(Cl)c2Cl)cc(-c2ccc3ccccc3c2)[nH]c1=O` ?
Out: 0 (no)

In: How did this test come out for COc1cc(NC(=O)c2cccc(C3CCc4c(cc(OC)c(OC)c4OC)O3)c2)cc(OC)c1OC (centres undefined) ?
Out: 0 (no)

---

- Test system: ACHN renal
- assay-procedure: NCI-60 one-dose screen, 48 h
- test-conditions: 10 µM unless noted
- Experimental: Growth inhibition of the ACHN human tumor cell line is measured as a screen for anti-cancer activity. Cells are grown in 96 well plates and exposed to the test compound for 48 hours. Compounds are tested at a single concentration, which is 10^-5 M for most compounds. The reported endpoint is percent growth (GI% or GIPRCNT), where numbers from 0 - 100% represent growth inhibition, and numbers from -100% - 0 represent cell death. For example, a value of 40 represents 60% growth inhibition. […]
The panel holds about 83,000 compounds, 20% with a hit somewhere; the sample as a whole holds those more often. Calls of active or inactive are those of the source. Rule for the calls: active = growth percent below 10; inactive = the rest.
Thanks in advance; please answer with one of these: TRUE = active, FALSE = inactive

In: How did this test come out for `Cc1ccc(-c2nnc3ccc(N/N=C/c4ccccc4)nn23)cc1` ?
Out: FALSE

In: How did this test come out for CC1(C)CC[C@]2(C(=O)O)CC[C@]3(C)C(=CCC4[C@@]5(C)C[C@@H](O)[C@@H]6OC(c7ccc(F)cc7)OC[C@@]6(C)C5CC[C@]43C)C2C1 (some centres undefined) ?
Out: FALSE

In: How did this test come out for CC12CC[C@@H]3[C@]4(C)COC(c5c(F)cccc5F)O[C@@H]4CC[C@@]3(C)[C@@H]1CC(C1=CCOC1=O)O2 (some centres undefined) ?
Out: FALSE

In: How did this test come out for `C[C@H](Nc1nc(NCCc2ccccc2)nc2ccccc12)c1ccccc1` ?
Out: TRUE

In: How did this test come out for `N#Cc1c(-c2cccc3ccccc23)cc(-c2cccc(OCC(=O)O)c2)[nH]c1=O` ?
Out: FALSE

In: How did this test come out for `O=C(Nc1cccc(-n2cnc3cc(-c4ccc(O)cc4)ccc32)c1)C1CC1` ?
Out: FALSE

In: How did this test come out for `COc1ccc(/C=C/c2n(Cc3ccc4ccccc4c3)c3ccccc3[n+]2Cc2ccc3ccccc3c2)cc1` ?
Out: TRUE

In: How did this test come out for C#CCOc1cc(N(CC)CC)ccc1C(C(=O)NC(C)(C)C)N(C(=O)C1CCc2cc(F)ccc2O1)c1ccc(Br)cc1 (centres undefined) ?
Out: FALSE

In: How did this test come out for `Cn1cc(-c2cc(N)n3nc(-c4c[nH]c5ccccc45)cc3n2)c2cccnc21` ?
Out: TRUE

In: How did this test come out for `Cc1cc(=O)oc2cc(OCCCCOc3ccc(/C=C/C(=O)Nc4ccccc4N)cc3)ccc12` ?
Out: FALSE

In: How did this test come out for `COc1cc(OC)cc(-c2cc3ccc(N(C)C)cc3c(=O)[nH]2)c1` ?
Out: FALSE

---

- Test system: TK-10 renal
- assay-procedure: NCI-60 one-dose screen, 48 h
- test-conditions: 10 µM unless noted
The panel holds about 83,000 compounds, 20% with a hit somewhere; the sample as a whole holds those more often. Active and inactive are the calls of the source. The calls were made as follows: active = growth percent below 10; inactive = the rest.
Thanks in advance; please answer with one of these: class 1 (active), class 0 (inactive)

>>> print(df.to_string())
                                   compound  discrete_label
0              CCCCc1c(Nn2cnnn2)no[n+]1[O-]         class 0
1  CCCCn1c(O)c(N=Nc2nc(-c3cc4ccccc4oc3=O)cs2)c2cc(Br)ccc21         class 0
2  O=c1[nH]n(C(=S)N/N=C/c2ccccc2Cl)c(=O)c2ccccc12         class 0
3  COc1ccc(-c2nc3ccc(C(=O)NN4C(=O)c5ccc([N+](=O)[O-])cc5C4=O)cc3[nH]2)cc1         class 0
4  O=C1/C(=C/C2=Cc3ccccc3OC2)SC(=S)N1c1ccccc1F         class 0

In: How did this test come out for `COc1ccc2c(c1)c(-c1cc(N)n3nc(-c4cn(C)c5ccccc45)cc3n1)cn2C` ?
Out: class 1

In: How did this test come out for C=C1CC[C@@H]2[C@]3(C)COC(c4cn[nH]c4-c4ccc(OC)cc4)O[C@@H]3CC[C@@]2(C)[C@@H]1C/C=C1/C(=O)OCC1O (some centres undefined) ?
Out: class 1

In: How did this test come out for `O=C(/C=C/Nc1ccc(Cl)cc1)c1ccc2c(c1)Nc1ccccc1S2` ?
Out: class 0

In: How did this test come out for CC1(c2cc3cc(Br)ccc3oc2=O)NC(=O)c2c(/C=C/C(=O)OC3CC4CCC3(C)C4(C)C)cccc2N1 (centres undefined) ?
Out: class 0
